Where do these numbers come from? They come from patent US20210330611A1.

test system: primary rat microglia; test: Cell toxicity (dead cells, size <150 μm2) in LPS assay; conditions: primary microglia HTS, 10 μM, LPS assay, cell size <150 μm^2 as marker of toxicity
Counter-ions that a name gives are not always drawn.
Task for the reader: assign each of the following molecules its reported LPS % cell toxicity.
Please state the figure in %; there is no need to write the unit.

get_value(item= CCOc1ccccc1OCCN[C@H](C)Cc1ccc(OC)c(S(N)(=O)=O)c1.Cl [Tamsulosin Hydrchloride] , readout=LPS % cell toxicity) returns 0

get_value(item= Nc1ncnc2c1ncn2[C@@H]1O[C@H](CO)[C@@H](O)[C@@H]1O , readout=LPS % cell toxicity) returns 0

get_value(item= NS(=O)(=O)Cc1noc2ccccc12 [Zonisamide] , readout=LPS % cell toxicity) returns 0

get_value(item= CCCCCC(C)N (centres unmarked) [Tuaminoheptane Sulfate] , readout=LPS % cell toxicity) returns 0

get_value(item= Cc1ccnc(NS(=O)(=O)c2ccc(N)cc2)n1 , readout=LPS % cell toxicity) returns 0

get_value(item= Oc1cc(Cl)ccc1Oc1ccc(Cl)cc1Cl , readout=LPS % cell toxicity) returns 1

get_value(item= CCCCCCCCCCCCCCCC[N+](C)(C)CCN(Cc1ccc(OC)cc1)c1ncccn1 [Thonzonium Bromide] , readout=LPS % cell toxicity) returns 1

get_value(item= C#C[C@]1(O)CC[C@H]2[C@@H]3[C@H](C)CC4=C(CCC(=O)C4)[C@H]3CC[C@@]21C , readout=LPS % cell toxicity) returns 0

get_value(item= Cc1cccc(Nc2ccncc2S(=O)(=O)NC(=O)NC(C)C)c1 [Torasemide] , readout=LPS % cell toxicity) returns 0

get_value(item= N[C@@H](Cc1cc(I)c(Oc2cc(I)c(O)c(I)c2)c(I)c1)C(=O)O , readout=LPS % cell toxicity) returns 1

get_value(item= CC(C)(C)NCC(O)c1ccccc1Cl.Cl (centres unmarked) [Tulobuterol, Tulobuterol Hydrochloride] , readout=LPS % cell toxicity) returns 0

get_value(item= Cc1ccc(C(=O)Nc2ccc(S(=O)(=O)O)c3cc(S(=O)(=O)O)cc(S(=O)(=O)O)c23)cc1NC(=O)c1cccc(NC(=O)Nc2cccc(C(=O)Nc3cc(C(=O)Nc4ccc(S(=O)(=O)O)c5cc(S(=O)(=O)O)cc(S(=O)(=O)O)c45)ccc3C)c2)c1 , readout=LPS % cell toxicity) returns 0

get_value(item= CCCCC1(COC(=O)CCC(=O)O)C(=O)N(c2ccccc2)N(c2ccccc2)C1=O , readout=LPS % cell toxicity) returns 0

get_value(item= CC(C)(C)NCC(O)c1cc(O)cc(O)c1 (centres unmarked) , readout=LPS % cell toxicity) returns 0

get_value(item= C[C@H](CCC(=O)O)[C@H]1CC[C@H]2[C@@H]3[C@@H](O)C[C@@H]4C[C@H](O)CC[C@]4(C)[C@H]3CC[C@]12C [Ursodeoxycholic Acid] , readout=LPS % cell toxicity) returns 0

get_value(item= CN(C)c1cc(NC(=O)CNC(C)(C)C)c(O)c2c1C[C@H]1C[C@H]3[C@H](N(C)C)C(O)=C(C(N)=O)C(=O)[C@@]3(O)C(O)=C1C2=O , readout=LPS % cell toxicity) returns 0

get_value(item= C[C@]12Cc3c[nH]nc3C[C@@H]1CC[C@@H]1[C@@H]2CC[C@@]2(C)[C@H]1CC[C@]2(C)O , readout=LPS % cell toxicity) returns 1

get_value(item= CC(C)OC(=O)CCC/C=C\C[C@@H]1[C@@H](/C=C/[C@@H](O)COc2cccc(C(F)(F)F)c2)[C@H](O)C[C@@H]1O , readout=LPS % cell toxicity) returns 0

get_value(item= CC1(O)CCC(C(C)(C)O)CC1.O (centres unmarked) [Terpene Hydrate] , readout=LPS % cell toxicity) returns 0

get_value(item= O=C1C(O)=C(O)C(=O)C(O)=C1O , readout=LPS % cell toxicity) returns 0

get_value(item= CCN(C(C)=O)c1cccc(-c2ccnc3c(C#N)cnn23)c1 , readout=LPS % cell toxicity) returns 0

get_value(item= CCOC(=O)NNc1nncc2ccccc12 [Todralazine Hydrochloride] , readout=LPS % cell toxicity) returns 0

get_value(item= Nc1ccc(S(=O)(=O)NC(=O)c2ccccc2)cc1 [Sulfabenzamide] , readout=LPS % cell toxicity) returns 1

get_value(item= CCCOc1ccccc1-c1nc2nn[nH]c2c(=O)[nH]1 , readout=LPS % cell toxicity) returns 0

get_value(item= CC(c1cc2ccccc2s1)N(O)C(N)=O (centres unmarked) , readout=LPS % cell toxicity) returns 0

get_value(item= CCN(CC)CCNC(=O)c1cc(S(C)(=O)=O)ccc1OC [Tiapride] , readout=LPS % cell toxicity) returns 0

---

system: LPS-induced microglia activation; experiment: Image-based assay of LPS-induced microglia activation (HTS and dose response); assay type: cell-based, rat; conditions: Rattus norvegicus, Microglia, 48 h, primary microglia HTS, LPS stimulation; increased cell size (>800 μm^2) as marker of activation; read-out: LPS % inhibition
Where a name gives a salt, the structure may show the parent alone.
Task for the reader: assign each of the following compounds its reported inhibition at 10 µM.
Please state the figure in %; there is no need to write the unit.

get_value(item= CCN(CC)Cc1cc(Nc2ccnc3cc(Cl)ccc23)ccc1O [Amodiaquine Dihydrochloride] , readout=inhibition at 10 µM) returns 114

get_value(item= O=[N+]([O-])c1ccc(O)c2ncccc12 [Nitroxoline] , readout=inhibition at 10 µM) returns -6

get_value(item= CN1C[C@H](CNC(=O)OCc2ccccc2)C[C@@H]2c3cccc4c3c(cn4C)C[C@H]21 [Metergoline] , readout=inhibition at 10 µM) returns 16

---

Counter-ions that a name gives are not always drawn.
Result Type: LPS % cell toxicity (%)
Please state the figure in %; there is no need to write the unit.

Per the reported primary rat microglia data, CC(C)NC(=N)NC(=N)Nc1ccc(Cl)cc1 [Proguanil; Chlorguanide Hydrochloride] has LPS % cell toxicity of 1

Per the reported primary rat microglia data, COc1ccccc1OCC(O)CN1CCN(CC(=O)Nc2c(C)cccc2C)CC1 (stereo not drawn) [Ranolazine, Ranolazine Dihydrochloride] has LPS % cell toxicity of 0

Per the reported primary rat microglia data, NC(Cc1ccc(Cl)cc1)C(=O)O (racemic) [(±)-p-chlorophenylalanine, Fenclonine] has LPS % cell toxicity of 0

Per the reported primary rat microglia data, NC[C@H]1O[C@H](O[C@H]2[C@H](O)[C@@H](O[C@H]3O[C@H](CO)[C@@H](O)[C@H](N)[C@H]3O)[C@H](N)C[C@@H]2N)[C@H](O)[C@@H](O)[C@@H]1O.O=S(=O)(O)O [Kanamycin Sulfate, Kanamycin A Sulfate] has LPS % cell toxicity of 1

Per the reported primary rat microglia data, CC[C@H]1CN2CCc3cc(OC)c(OC)cc3[C@@H]2C[C@@H]1C[C@H]1NCCc2cc(OC)c(OC)cc21 [Emetine, Emetine Dihydrochloride] has LPS % cell toxicity of 46

Per the reported primary rat microglia data, CC1(C)C2CCC1(CS(=O)(=O)O)C(=O)C2=Cc1ccc(C=C2C(=O)C3(CS(=O)(=O)O)CCC2C3(C)C)cc1 has LPS % cell toxicity of 0

---

Task for the reader: assign each of the following compounds its reported LPS % inhibition.
test system: LPS-induced microglia activation; experiment: Image-based assay of LPS-induced microglia activation (HTS and dose response); assay type: cell-based, rat; conditions: primary microglia HTS, LPS stimulation; increased cell size (>800 μm^2) as marker of activation
Please state the figure in %; there is no need to write the unit.

get_value(item= CCCOc1ccc2[nH]c(NC(=O)OC)nc2c1 [Oxybendazole, reference compound] , readout=LPS % inhibition) returns 15

get_value(item= [O-][n+]1cccc(CO)c1 [Mepiroxol] , readout=LPS % inhibition) returns 11

get_value(item= CC(=O)N[C@H]1[C@H]([C@H](O)[C@H](O)CO)OC(O)(C(=O)O)C[C@@H]1O (stereo partly drawn) [N-acetylneuramic Acid, Aceneuramic Acid] , readout=LPS % inhibition) returns 19

get_value(item= COC(=O)C[C@](O)(CCCC(C)(C)O)C(=O)O[C@@H]1C(OC)=C[C@]23CCCN2CCc2cc4c(cc2[C@H]13)OCO4 [Homoharringtonie] , readout=LPS % inhibition) returns 106

get_value(item= CSc1ccc2c(c1)C(N1CCN(C)CC1)Cc1ccccc1S2 (stereo not drawn) , readout=LPS % inhibition) returns −5

get_value(item= CN1CCc2c(c3ccccc3n2Cc2ccccc2)C1.CN1CCc2c(c3ccccc3n2Cc2ccccc2)C1.O=S(=O)(O)c1cccc2c(S(=O)(=O)O)cccc12 [Mebhydrolin Naphthalenesulfonate] , readout=LPS % inhibition) returns 17

---

system: fibrin-induced microglia activation; experiment: Image-based assay of fibrin-induced microglia activation (HTS and dose response); format: cell-based, rat; settings: Rattus norvegicus, Microglia, 48 h, Table 1; dose response 0.001-20 μM, triplicates, primary rat microglia, 48 h; read-out: Fibrin IC50
Counter-ions that a name gives are not always drawn.
Result Type: log10(IC50) (log10 of the value in nM)
Log scale reminder: IC50 in nM, then log10 taken.

get_value(item= CCN(CC)CCNc1ccc(CO)c2sc3ccccc3c(=O)c12 [Hycanthone, reference compound] , readout=log10(IC50)) returns 3.00

get_value(item= O=C(OOC(=O)c1ccccc1)c1ccccc1 [Benzoyl peroxide, reference compound] , readout=log10(IC50)) returns 4.30

get_value(item= CC(=O)OCC(=O)[C@H]1CC[C@H]2[C@@H]3CCC4=CC(=O)CC[C@]4(C)[C@H]3CC[C@]12C [Desoxycorticosterone acetate, reference compound] , readout=log10(IC50)) returns 2.70

get_value(item= CN(C)[C@@H]1C(O)=C(C(N)=O)C(=O)[C@@]2(O)C(O)=C3C(=O)c4c(O)ccc(Cl)c4[C@@H](O)[C@H]3C[C@@H]12 [Demeclocycline hydrochloride, reference compound] , readout=log10(IC50)) returns 3.78

get_value(item= c1ccc2c(c1)OCC(C1=NCCN1)O2 (stereo not shown) [Idazoxan hydrochloride, reference compound] , readout=log10(IC50)) returns 2.60
